The measurements presented in this section are drawn from patent US20250250357A1.

target: T1, human MSLN-FL-his protein (human, UniProt Q13421 296-580); assay: competitive ELISA; row F8-7.5; note: test concentration or dose not given here
T1 construct: made in HEK293E cells, purified on nickel column; also called hMSLN-FL-his; human MSLN full-length protein; not shown: His tag
T1 sequence (Q13421 other isoform, or with tags, fused parts or gaps): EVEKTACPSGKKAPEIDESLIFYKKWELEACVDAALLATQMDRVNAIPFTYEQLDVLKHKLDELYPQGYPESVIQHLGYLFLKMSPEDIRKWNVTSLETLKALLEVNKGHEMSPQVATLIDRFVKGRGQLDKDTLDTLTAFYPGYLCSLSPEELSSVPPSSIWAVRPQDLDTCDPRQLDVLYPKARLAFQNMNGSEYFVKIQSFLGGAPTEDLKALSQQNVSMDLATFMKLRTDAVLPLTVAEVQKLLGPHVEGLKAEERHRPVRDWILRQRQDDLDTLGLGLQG
QUANTITY KIND: competition rate (%)
Field format: number, assumed %, no unit text.

Example entries begin here.
- S009-F8-4.5 (antibody, human IgG1, kappa, V domains shown, human-murine chimeric antibody, human IgG1/kappa constant regions) VH: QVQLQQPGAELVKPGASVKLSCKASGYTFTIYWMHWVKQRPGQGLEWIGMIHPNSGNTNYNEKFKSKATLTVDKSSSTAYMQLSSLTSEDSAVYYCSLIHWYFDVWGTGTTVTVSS VL: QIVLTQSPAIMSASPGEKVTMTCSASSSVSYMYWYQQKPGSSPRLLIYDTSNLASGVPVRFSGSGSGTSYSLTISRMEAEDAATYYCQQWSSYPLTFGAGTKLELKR: 23.6
- S009-F8-18.9 (antibody, human IgG1, kappa, V domains shown, human-murine chimeric antibody, human IgG1/kappa constant regions) VH: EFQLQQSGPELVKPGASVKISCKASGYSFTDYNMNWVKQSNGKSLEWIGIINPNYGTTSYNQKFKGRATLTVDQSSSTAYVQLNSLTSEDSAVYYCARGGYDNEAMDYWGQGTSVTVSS VL: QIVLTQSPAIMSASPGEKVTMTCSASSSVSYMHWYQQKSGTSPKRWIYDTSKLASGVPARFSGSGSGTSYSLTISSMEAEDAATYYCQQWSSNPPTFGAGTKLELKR: -116

// below: competition rate requested for another binder
// query competition rate value for entry S009-F8-13.8 (antibody, human IgG1, kappa, V domains shown, human-murine chimeric antibody, human IgG1/kappa constant regions) VH: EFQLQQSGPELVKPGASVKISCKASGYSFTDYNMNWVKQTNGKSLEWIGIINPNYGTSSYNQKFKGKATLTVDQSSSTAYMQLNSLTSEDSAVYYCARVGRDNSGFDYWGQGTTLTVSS VL: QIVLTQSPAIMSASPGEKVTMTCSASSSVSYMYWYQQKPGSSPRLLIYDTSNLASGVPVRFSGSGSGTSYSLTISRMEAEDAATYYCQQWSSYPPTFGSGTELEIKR
-135
